These data points were gathered from patent US20260265279A1.

Reported IC50 values for the following compounds.
subjectOfTest: ROCK1 (Homo sapiens, UniProt Q13464)
Construct: purchased Invitrogen PV3691
Sequence (Q13464 1-535 limits assumed): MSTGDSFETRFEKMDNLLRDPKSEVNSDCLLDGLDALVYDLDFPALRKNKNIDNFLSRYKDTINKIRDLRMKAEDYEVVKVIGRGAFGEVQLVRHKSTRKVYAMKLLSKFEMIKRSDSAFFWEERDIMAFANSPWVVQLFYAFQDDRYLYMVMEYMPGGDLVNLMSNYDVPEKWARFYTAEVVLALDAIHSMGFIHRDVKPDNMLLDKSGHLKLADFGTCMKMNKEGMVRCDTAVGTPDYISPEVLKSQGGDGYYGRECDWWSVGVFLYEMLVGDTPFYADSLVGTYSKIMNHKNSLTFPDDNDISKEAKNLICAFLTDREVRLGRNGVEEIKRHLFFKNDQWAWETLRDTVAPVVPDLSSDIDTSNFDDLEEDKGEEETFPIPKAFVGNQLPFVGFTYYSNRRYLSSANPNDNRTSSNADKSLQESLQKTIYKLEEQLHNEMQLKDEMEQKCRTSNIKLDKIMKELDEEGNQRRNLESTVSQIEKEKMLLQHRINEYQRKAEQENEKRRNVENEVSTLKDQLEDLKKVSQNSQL
procedureText: Kinase IC50 assay, HTRF kinEASE STK S2 kit, ROCK1
Type: biochemical
experimentalSetup: ATP 1.5 μM, 2.5 ng/well enzyme, 120 min

{"columns": ["compound", "IC50"],
 "data": [
  ["Cn1c(C#Cc2nccc(Nc3ccc(-c4cn[nH]c4)cc3)n2)ccc1C(=O)N1CC(F)(F)C1 [Compound A1]", "> 100 µM"],
  ["Cn1c(C#Cc2ncnc(Nc3ccc(-c4cn[nH]c4)cc3)n2)ccc1C(=O)N1CC(F)(F)C1 [Compound A9]", "> 100 µM"],
  ["O=C1c2ccc(C#Cc3ncc(F)c(Nc4ccc(-c5cn[nH]c5)cc4)n3)n2CCN1CC(F)(F)F [Compound A38]", "> 100 µM"],
  ["CCn1c(C#Cc2nccc(Nc3ccc(-c4cn[nH]c4)cc3)n2)ccc1C(=O)N1CC(F)(F)C1 [Compound A32]", "30.7 µM"],
  ["Cn1c(C#Cc2ncc(F)c(Nc3ccc(-c4cn[nH]c4)cc3)n2)ccc1C(=O)N1CC(F)(F)C1 [Compound A7]", "> 100 µM"],
  ["CN1Cc2nc(C#Cc3ccc(C(=O)N4CC(F)(F)C4)n3C)nc(Nc3ccc(-c4cn[nH]c4)cc3)c2C1 [Compound A11]", "> 100 µM"]
]}

QUERY: Specify IC50 for Cn1cc(C#Cc2nccc(Nc3ccc(-c4cn[nH]c4)cc3)n2)cc1C(=O)N1CC(F)(F)C1 [Compound A18] and stop.
RESULT: 53.8 µM

QUERY: Quickly give me recorded IC50 for Cn1c(C#Cc2nc(Nc3ccc(-c4cn[nH]c4)cc3)c3ccccc3n2)ccc1C(=O)N1CC(F)(F)C1 [Compound A37]
RESULT: > 100 µM
